B1: Zinc finger homeobox protein 3, residues 2643 to 2698; numbered along this chain, Q15911 (parent)
chain: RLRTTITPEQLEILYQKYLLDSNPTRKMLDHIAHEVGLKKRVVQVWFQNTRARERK

# Variants of: B1
# PROCEDURE DETAILS: abundance fitness (aPCA) (normalised: wild type 0, dead -1); higher = more abundant; growth selection in yeast, the domain comes from the species named
# TEST CONTEXT: Homo sapiens
Please note: condition met applies when abundance fitness is -0.04 or greater, and condition not met applies otherwise.

// known answers, use as guide
Ask: Kindly determine if abundance fitness recorded for `V42S` is above or exactly -0.04.
Result: condition not met

Ask: And then `K40G` , what is it?
Result: condition met

Ask: And then `E12T` , what is it?
Result: condition met

Ask: And then `V43C` , what is it?
Result: condition not met

***
Ask: Kindly determine if abundance fitness recorded for `E35F` is above or exactly -0.04.
Result: condition not met

Ask: And then `A52Q` , what is it?
Result: condition met

Ask: And then `T7R` , what is it?
Result: condition not met
